Each recorded value in this set is attributed to patent US20110015162A1.

# measured-target: androgen receptor (Homo sapiens)
# Sequence (P10275 whole entry, species assumed): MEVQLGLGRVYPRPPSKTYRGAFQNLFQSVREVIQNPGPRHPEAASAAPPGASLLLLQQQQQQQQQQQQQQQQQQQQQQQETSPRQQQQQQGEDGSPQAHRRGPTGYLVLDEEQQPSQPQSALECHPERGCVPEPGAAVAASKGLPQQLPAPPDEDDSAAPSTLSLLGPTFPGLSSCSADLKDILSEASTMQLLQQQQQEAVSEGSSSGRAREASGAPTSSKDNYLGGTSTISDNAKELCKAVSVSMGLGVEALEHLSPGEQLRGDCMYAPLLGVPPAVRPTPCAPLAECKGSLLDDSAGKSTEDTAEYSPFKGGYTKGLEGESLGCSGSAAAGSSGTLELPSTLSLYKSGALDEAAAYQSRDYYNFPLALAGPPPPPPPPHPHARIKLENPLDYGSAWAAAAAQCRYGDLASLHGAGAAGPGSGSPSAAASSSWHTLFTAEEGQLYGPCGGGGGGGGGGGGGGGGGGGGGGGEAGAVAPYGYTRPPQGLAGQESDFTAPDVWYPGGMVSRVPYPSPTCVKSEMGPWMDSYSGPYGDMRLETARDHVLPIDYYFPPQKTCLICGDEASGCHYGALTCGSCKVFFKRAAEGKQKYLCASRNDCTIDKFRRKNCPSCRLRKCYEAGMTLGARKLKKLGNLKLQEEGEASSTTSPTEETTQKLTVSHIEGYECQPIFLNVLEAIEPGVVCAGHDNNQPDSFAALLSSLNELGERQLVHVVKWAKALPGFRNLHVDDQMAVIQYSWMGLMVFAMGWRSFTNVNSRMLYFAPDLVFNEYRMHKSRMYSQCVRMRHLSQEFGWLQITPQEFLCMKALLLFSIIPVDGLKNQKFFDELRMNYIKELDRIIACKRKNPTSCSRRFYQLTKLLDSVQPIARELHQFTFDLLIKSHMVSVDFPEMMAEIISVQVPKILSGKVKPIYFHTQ
# test-name: Androgenic/antiandrogenic action by transactivation test (PC3 reporter cells)
# Format: cell-based
# Parameters: expressed in transfected cells; host or cells: PC3 cells
# condition-context: PC-3, read-out: Androgen receptor Agonism efficacy
Each entry falls in a class defined on Emax; the bands are lower segment: < 40%; middle segment: ≥ 40% and < 70%; upper segment: ≥ 70%

Field: example entries. Status: answers known.
# compound, qualitative-label
data = [
    ("C[C@@H]1CC2=CC(=O)CC[C@@H]2[C@H]2CC[C@@]3(C)[C@@H]([C@H]4C[C@H]4[C@@]34C=CC(=O)O4)[C@@H]21 [Example 14A]", "middle segment"),
    ("CC[C@@H]1CC2=CC(=O)CC[C@@H]2[C@H]2CC[C@@]3(CC)[C@@H]([C@@H]4C[C@@H]4[C@@]34C=CC(=O)O4)[C@H]12 [Example 5A]", "upper segment"),
    ("C[C@@H]1CC2=CC(=O)CC[C@@H]2[C@H]2CC[C@@]3(C)[C@@H]([C@@H]4C[C@@H]4[C@@]34C=CC(=O)O4)[C@@H]21 [Example 23A]", "middle segment"),
]

IN: Class? Entry: C[C@]12CC[C@H]3[C@@H](CCC4=CC(=O)CC[C@@H]43)[C@@H]1[C@@H]1C[C@@H]1[C@@]21C=CC(=O)O1 [Example 19]
OUT: upper segment

IN: Dear colleague, I would appreciate it if you could identify the bin for CC[C@]12CC[C@H]3[C@@H]([C@H]4C[C@H]4C4=C(Cl)C(=O)CC[C@@H]43)[C@@H]1[C@@H]1C[C@@H]1[C@@]21C=CC(=O)O1 [Example 8] and reply at your convenience.
OUT: lower segment

IN: Textbook exercise: identify the category of the compound given here, C=C[C@@H]1CC2=CC(=O)CC[C@@H]2[C@H]2CC[C@@]3(C)[C@@H]([C@@H]4C[C@@H]4[C@@]34C=CC(=O)O4)[C@@H]21 [Example 25A] , according to its measured value.
OUT: upper segment

IN: # bin lookup: classify CC[C@]12CC[C@H]3[C@@H]([C@H]4C[C@H]4C4=CC(=O)CC[C@@H]43)[C@@H]1[C@@H]1C[C@@H]1[C@@]21C=CC(=O)O1 [Example 1] by its Emax
OUT: middle segment

IN: Hi there! Could you help me figure out the category for C[C@]12CC[C@H]3[C@@H](C[C@@H](CO)C4=CC(=O)CC[C@@H]43)[C@@H]1[C@@H]1C[C@@H]1[C@@]21C=CC(=O)O1 [Example 21] please?
OUT: lower segment

* * *

A collection of compounds and their measured Progesterone receptor (PR) Competition factor
# measured-target: progesterone receptor (Homo sapiens)
# Construct: made in house; host or cells: Hi5 insect cells (cytosol)
# Sequence (P06401 whole entry, species assumed): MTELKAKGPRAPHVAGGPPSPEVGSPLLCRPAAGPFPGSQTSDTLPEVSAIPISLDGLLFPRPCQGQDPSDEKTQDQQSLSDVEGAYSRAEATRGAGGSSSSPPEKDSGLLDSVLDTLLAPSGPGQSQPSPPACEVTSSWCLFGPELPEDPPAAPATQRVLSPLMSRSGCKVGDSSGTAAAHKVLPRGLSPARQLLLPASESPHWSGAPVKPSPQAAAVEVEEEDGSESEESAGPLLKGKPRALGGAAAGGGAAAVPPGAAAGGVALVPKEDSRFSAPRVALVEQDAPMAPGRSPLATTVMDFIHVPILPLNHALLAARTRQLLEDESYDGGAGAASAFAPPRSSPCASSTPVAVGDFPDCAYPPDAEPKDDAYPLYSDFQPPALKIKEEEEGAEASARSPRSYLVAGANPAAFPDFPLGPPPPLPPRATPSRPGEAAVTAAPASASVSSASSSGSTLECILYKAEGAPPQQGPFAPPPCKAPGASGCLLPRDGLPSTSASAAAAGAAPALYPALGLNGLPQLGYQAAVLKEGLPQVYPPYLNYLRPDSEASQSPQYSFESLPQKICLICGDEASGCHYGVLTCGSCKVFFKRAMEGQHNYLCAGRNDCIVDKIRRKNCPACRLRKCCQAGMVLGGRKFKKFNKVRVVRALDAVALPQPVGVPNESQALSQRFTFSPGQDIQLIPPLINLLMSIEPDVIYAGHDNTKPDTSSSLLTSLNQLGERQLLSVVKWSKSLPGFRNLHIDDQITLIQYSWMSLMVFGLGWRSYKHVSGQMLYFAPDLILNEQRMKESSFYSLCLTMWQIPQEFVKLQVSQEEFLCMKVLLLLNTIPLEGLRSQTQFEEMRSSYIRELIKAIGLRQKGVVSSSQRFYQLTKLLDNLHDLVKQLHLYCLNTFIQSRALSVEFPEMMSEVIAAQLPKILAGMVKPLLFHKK
# test-name: Progesterone receptor binding test
# condition-context: CF 1 = affinity of progesterone; CF >1 lower affinity, <1 higher affinity
Answer field: number only, no words.

Study these solved cases before continuing.
# compound, reading
rows = [
    ("C[C@]12CC[C@H]3[C@@H](CC4(CC4)C4=CC(=O)CC[C@@H]43)[C@@H]1[C@@H]1C[C@@H]1[C@@]21C=CC(=O)O1", 1.04),
    ("C[C@]12CC[C@H]3[C@@H](CCC4=CC(=O)CC[C@@H]43)[C@@H]1[C@H]1C[C@H]1[C@@]21C=CC(=O)O1", 1.50),
    ("CC[C@@H]1CC2=CC(=O)CC[C@@H]2[C@H]2CC[C@@]3(C)[C@@H]([C@H]4C[C@H]4[C@@]34C=CC(=O)O4)[C@H]12 [Example 15A]", 8.36),
    ("CC[C@@H]1CC2=CC(=O)CC[C@@H]2[C@H]2CC[C@@]3(C)[C@@H]([C@@H]4C[C@@H]4[C@@]34C=CC(=O)O4)[C@H]12 [Example 24A]", 41.55),
]

As a next step, examine the compound that follows.
IN: I would be grateful if you could share the reported Progesterone receptor (PR) Competition factor for C[C@@H]1CC2=CC(=O)CC[C@@H]2[C@H]2CC[C@@]3(C)[C@@H]([C@H]4C[C@H]4[C@@]34C=CC(=O)O4)[C@@H]21 [Example 14A] .
OUT: 2.04
